Just for reference, ChEMBL document CHEMBL1201862 is where these values come from.

Test system: OVCAR-3
assay.protocol: NCI tumour cell line growth inhibition, 48 h
Activity calls are given as the source filed them. No stated cut-off is given here; in the data, active = GI50 up to about 1.1 µM and inactive = higher.
metric: GI50

Which GI50 value belongs to `O=c1nc(-c2ccccc2)scc1-c1ccccc1` ? > 100 µM (inactive)

For Fc1cccc(C2SCc3nc4ccccc4n32)c1F (stereo not given) then? 29.1 µM (inactive)

For `COC(=O)c1c2c(cc3c1CCC3)CCC2` then? > 100 µM (inactive)

For COc1cc(C2C(C(=O)O)=C(COC(C)=O)Oc3cc4c(cc32)OCO4)cc(OC)c1OC(C)=O (stereo not given) then? > 100 µM (inactive)

For `Cn1c(=O)c2c(nc3sc4c(n32)C(=O)c2c(O)ccc(O)c2C4=O)n(C)c1=O` then? 4.67 µM (inactive)

Next:
Which GI50 value belongs to `COc1ccc(-[n+]2nc(S(=O)(=O)O)c(/C=C/c3ccc(N(C)C)cc3)cc2C#N)cc1` ? > 100 µM (inactive)

For `Cc1cc(S(=O)(=O)n2ccnc2Oc2cccc(Cl)c2)c(SSc2cc(Cl)c(C)cc2S(=O)(=O)n2ccnc2Oc2cccc(Cl)c2)cc1Cl` then? 8.02 µM (inactive)

For COC(=O)C(COC(C)=O)NC(=O)/C=C/c1ccc(O)c(OC(C)=O)c1 (stereo not given) then? 50.6 µM (inactive)

For `CCCCCCc1cn([C@H]2C[C@H](O)[C@@H](CO)O2)c(=O)[nH]c1=O` then? > 100 µM (inactive)

For `O=c1[nH]c(Nc2ccc(Br)c(C(F)(F)F)c2)nc2[nH]cnc12` then? 31.8 µM (inactive)

For COc1c2c(c3c(c1C1OC(C)[C@@H](C)O1)CC(C)(C)O3)C(=O)c1ccccc1C2=O (stereo not given in full) then? 38.2 µM (inactive)

For COc1cc(C2c3cc4c(cc3OC(NCCO)C2C)OCO4)cc(OC)c1O (stereo not given) then? 5.2 µM (inactive)

For `Cc1csc(-n2c(C)nc3cc(Cl)ccc3c2=O)n1` then? 78.9 µM (inactive)

For Cc1cc(Cl)cc2c1NC(=O)C2(O)C(C)C(=O)c1ccc(Cl)cc1 (stereo not given) then? 49.9 µM (inactive)

For `O=Cc1ccc2ccocc1-2` then? > 100 µM (inactive)

###

Below is a list of entries, each paired with its recorded GI50 value.
Test system: SNB-19
assay.protocol: NCI tumour cell line growth inhibition, 48 h
Calls of active or inactive are those of the source. No stated cut-off is given here; in the data, active = GI50 up to about 1.1 µM and inactive = higher.

Check out these entries, answers already filled in.
Which GI50 value belongs to O=C1c2ccccc2C(=O)N1CCSCC(CO)SCCN1C(=O)c2ccccc2C1=O (configuration not stated) ? > 100 µM (inactive)

For `COn1cc(CO)c2ccccc21` then? > 100 µM (inactive)

For `CCn1c2ccccc2c2ccc(C3C(C(=O)OC)=C(C)NC(C)=C3C(=O)OC)cc21` then? 55.8 µM (inactive)

For `CSc1cc(Cl)c(C)cc1S(=O)(=O)NC(=O)NNc1cnc2ccccc2n1` then? > 100 µM (inactive)

Next:
Which GI50 value belongs to CCC1(N)C(=O)OCc2c1cc1n(c2=O)Cc2cc3ccccc3nc2-1 (configuration not stated) ? 7.67 µM (inactive)

For O=C(Cc1ccccc1)C(c1ccccc1)S(=O)(=O)c1ccccc1 (configuration not stated) then? > 100 µM (inactive)

For COc1c(O)cc(O)c2c(=O)cc(-c3ccccc3)oc12 [WOGONIN] then? 58.7 µM (inactive)

For `Cc1cc2c(=O)[nH]nc(N)c2c(N)n1` then? > 100 µM (inactive)

For `CN(C)Cc1cc(/N=N/c2c(Cl)cccc2Cl)ccc1O` then? > 100 µM (inactive)

For `COc1ccc2nc(C)cc(NCCCCCCCCCNc3cc(C)nc4ccc(OC)cc34)c2c1` then? 2.67 µM (inactive)

For CN(C)CCNC1=Nc2ccccc2C(=S)N2CSCC12 (configuration not stated) then? > 100 µM (inactive)

For CCOC(=O)C1Nc2ccccc2[C@H]2OCC[C@@H]12 (some centres not stated) then? > 100 µM (inactive)

For `C/C(=N\N=C(/S)N(C)C)c1cccnn1` then? 1.46 µM (inactive)

For O=C(c1ccccc1)C1C[C@H]2CO[C@H](c3ccccc3)N2C1=O (some centres not stated) then? > 100 µM (inactive)

For `CCc1ccccc1NC(=O)CCc1n[nH]c(=S)o1` then? > 100 µM (inactive)

For `COc1cc2cc3c4c(cc(OC)c(OC)c4c2cc1OC)CCN3C(=O)CCC(=O)O` then? > 100 µM (inactive)

For `O=C1NC(N2CCCCC2)=N/C1=C\c1ccccc1` then? > 100 µM (inactive)
